Tested on: OVCAR-4
Experiment: NCI tumour cell line growth inhibition, 48 h
Activity calls are given as the source filed them. Cut-off read from the data, not from the text of the source: active = GI50 up to about 1.1 µM and inactive = higher.
quantity.kind: GI50

molecule	result
O=S(=O)(O)C(F)(F)C(F)(F)C(F)(F)C(F)(F)F	> 100 µM (inactive)

Consider the molecule shown here: `CC(=O)c1c(SCCN2CCCC2)n(-c2ccccc2)c(=S)n(-c2ccccc2)c1=O` What is its recorded GI50?
29 µM (inactive)

====

System: CCRF-CEM
Assay: NCI tumour cell line growth inhibition, 48 h
Where a name gives a salt, the structure may show the parent alone. Calls of active or inactive are those of the source. Rule as the data show it: active = GI50 up to about 1.1 µM and inactive = higher.
quantity.kind: GI50

Use the examples below as a reference point.
compound	GI50
Cc1ccc(S(=O)(=O)OCCn2cnc3nc(NC(=O)c4ccccc4)[nH]c(=O)c32)cc1	> 100 µM (inactive)
NC(=O)NC1NC(=O)NC1=O (centres undefined)	> 100 µM (inactive)

Consider the compound shown here: `CC(C)C(=S)N(C)O` What is its recorded GI50?
0.502 µM (active)

Consider the compound shown here: CN1CCC(CN2c3ccccc3Sc3ccccc32)C1 (centres undefined) [METHDILAZINE HYDROCHLORIDE] What is its recorded GI50?
15.2 µM (inactive)

Consider the compound shown here: `COc1cccc(-c2cc(O)c3cc(N)ccc3n2)c1` What is its recorded GI50?
2.25 µM (inactive)

Consider the compound shown here: `COc1cccc2c1CCc1c(-c3ccc(F)cc3)cc(-c3ccc4ccccc4n3)nc1-2` What is its recorded GI50?
> 100 µM (inactive)

Consider the compound shown here: `O=C(NC(=O)c1cn(CCN2CCN(C(=O)NCCCCCCNC(=O)N3CCN(CCn4cc(C(=O)NC(=O)OCc5ccccc5)c(=O)[nH]c4=O)CC3)CC2)c(=O)[nH]c1=O)OCc1ccccc1` What is its recorded GI50?
> 100 µM (inactive)

Consider the compound shown here: CCCCCCCCCC(=O)OCC1OC(n2cc(F)c(=O)[nH]c2=O)C(N)C(OC(=O)CCCCCCCCC)C1O (centres undefined) What is its recorded GI50?
18.5 µM (inactive)

Consider the compound shown here: `C[n+]1c(-c2ccc(/C=N/NC(=O)C(=O)N/N=C/c3ccc(-c4cn5ccccc5[n+]4C)cc3)cc2)cn2ccccc21` What is its recorded GI50?
> 100 µM (inactive)

Consider the compound shown here: COC(=O)C1=C(C(=O)OC)C(C(=O)c2ccccc2)N2N=C(c3ccc(Cl)cc3)C=CC12 (centres undefined) What is its recorded GI50?
13.6 µM (inactive)

Consider the compound shown here: O=c1[nH]c(=O)n(C2OC3COC2C3O)cc1F (centres undefined) What is its recorded GI50?
> 100 µM (inactive)

Consider the compound shown here: `CC1=C(c2ccccc2)CON(c2ccccc2)C1` What is its recorded GI50?
25.1 µM (inactive)

Consider the compound shown here: `CCCCCCCCCCCCCB(O)O` What is its recorded GI50?
57.8 µM (inactive)

Consider the compound shown here: `O=P(O)(CCP(=O)(O)c1ccccc1)c1ccccc1` What is its recorded GI50?
> 100 µM (inactive)

Consider the compound shown here: C=C(C)[C@@H](O)[C@H](O)C[C@H](C)C1CC[C@]2(C)C1=CC[C@@H]1[C@@]3(C)CC[C@@H](OC(C)=O)C(C)(C)[C@@H]3C[C@@H](OC3OC(COC(C)=O)C(O)C(O)C3O)[C@]12C (some centres undefined) What is its recorded GI50?
2.29 µM (inactive)

Consider the compound shown here: C/C(=C\COc1cc(O)c2c(c1)C(=O)c1cc(C)cc(O)c1C2=O)CCC1OC1(C)C (centres undefined) What is its recorded GI50?
11.2 µM (inactive)

Consider the compound shown here: `CNC(=O)NCCN1N=C(C)/C(=C\c2ccccc2)CC1=O` What is its recorded GI50?
> 100 µM (inactive)

Consider the compound shown here: `CN1CCN(C(=S)N(C(=O)c2ccco2)c2ccccc2)CC1` What is its recorded GI50?
> 100 µM (inactive)

Consider the compound shown here: `O=C(O)c1nn(-c2ccc(Cl)cc2)c2c1C(=O)c1ccccc1C2=O` What is its recorded GI50?
< 0.01 µM (active)

# credit: ChEMBL document CHEMBL1201862
